# MEASURED TARGET: Dual specificity protein kinase CLK4 (Homo sapiens)
# MEASUREMENT DESCRIPTION: qHTS Assay for Inhibitors of CDC-like Kinase 4 (ADP-Glo Assay) (AID 1771); note: nearly all actives have a fitted effect of over 70% in size
# SETTINGS: recombinant CLK4, ADP-Glo luminescence; series mostly up to 80 µM
Results filed as inconclusive are left out. The source made the active and inactive calls. Calls come from the whole dose curve; as a rule, active = well fitted inhibition curve with a large enough effect; inconclusive = small, poorly fitted or top-dose-only effect; inactive = flat fitted curve, though single readings scatter.
A correct response names exactly one class from yes (1) = active, no (0) = inactive

INPUT: Just curious, what result did "COc1cccc(-c2cc(NCCc3c[nH]c4ccc(OC)cc34)ncn2)c1" get here?
OUTPUT: yes (1)

INPUT: Moving on to the next molecule: "COc1ncc2nc(-c3cn(C)c4ccccc34)c(=O)n(C)c2n1"
OUTPUT: no (0)

INPUT: Moving on to the next molecule: "CC(=O)NCCNc1nc(-c2ccc(C(=O)N(C)C)cc2)nc2ccccc12"
OUTPUT: no (0)

INPUT: Moving on to the next molecule: "CCNc1ncc2nc(-c3ccccc3)c(=O)n(C)c2n1"
OUTPUT: no (0)

INPUT: Moving on to the next molecule: "O=c1cnc2cnc(Oc3cccc(Cl)c3)nc2n1CCc1ccccc1"
OUTPUT: yes (1)

INPUT: Moving on to the next molecule: "COc1cccc(Cn2c(=O)c(-c3ccc(F)cc3)nc3cnc(N4CCNCC4)nc32)c1"
OUTPUT: no (0)

INPUT: Moving on to the next molecule: "N#CCCn1c(=O)c(-c2ccccc2)nc2cnc(N3CCOCC3)nc21"
OUTPUT: no (0)

INPUT: Moving on to the next molecule: "COc1ccc(CNc2ncncc2-c2ccccc2C)c(OC)c1"
OUTPUT: no (0)

INPUT: Moving on to the next molecule: "O=c1cnc2cnc(N3CCNCC3)nc2n1C1CC1"
OUTPUT: no (0)

INPUT: Moving on to the next molecule: "COc1cccc(-c2nccc(NCc3ccccc3OC)n2)c1"
OUTPUT: yes (1)

INPUT: Moving on to the next molecule: "Cc1cnc(CNc2nc(-c3ccccc3C)nc3ccccc23)cn1"
OUTPUT: no (0)

INPUT: Moving on to the next molecule: "N#Cc1ccccc1-c1ccc2ncnc(NCc3cccs3)c2c1"
OUTPUT: yes (1)

INPUT: Moving on to the next molecule: "CN1CCN(c2ncc3nc(-c4cn(C)c5ccccc45)c(=O)n(CCc4ccccc4)c3n2)CC1"
OUTPUT: no (0)

INPUT: Moving on to the next molecule: "COCCn1c(=O)c(-c2cccs2)nc2cnc(N3CCN(C)CC3)nc21"
OUTPUT: no (0)

INPUT: Moving on to the next molecule: "FC(F)(F)c1ccccc1-c1nc(NC2CC2)c2ccccc2n1"
OUTPUT: yes (1)

INPUT: Moving on to the next molecule: "COc1cccc(Nc2ncc3nc(-c4cccs4)c(=O)n(Cc4cccs4)c3n2)c1"
OUTPUT: no (0)

INPUT: Moving on to the next molecule: "COc1ccccc1-c1cc(N(C)Cc2ccco2)ncn1"
OUTPUT: yes (1)

INPUT: Moving on to the next molecule: "Cc1noc(C)c1-c1cncnc1-n1ccnc1"
OUTPUT: no (0)

INPUT: Moving on to the next molecule: "O=c1c(-c2ccccc2)nc2cnc(Oc3cccc(Cl)c3)nc2n1C[C@H]1CCCO1"
OUTPUT: no (0)

INPUT: Moving on to the next molecule: "FC(F)(F)c1ccccc1-c1cncnc1NCCN1CCOCC1"
OUTPUT: no (0)

INPUT: Moving on to the next molecule: "CN1CCN(c2ncncc2-c2cccnc2)CC1"
OUTPUT: no (0)

INPUT: Moving on to the next molecule: "Cc1noc(C)c1-c1nc(NC2CCNCC2)c2ccccc2n1"
OUTPUT: yes (1)

INPUT: Moving on to the next molecule: "CN(C)c1ncc2nc(-c3ccc(Cl)cc3)c(=O)n(Cc3ccc(F)cc3)c2n1"
OUTPUT: no (0)
